We begin with a simple list: items and their reported Max MFI.
# experimental.system: T1, human CD24 (human, UniProt P25063 27-59, heavily glycosylated, GPI-anchored (as described in the background))
# T1 construct: whole, on cells; Target of all cell-based FACS assays; also called hCD24; Cluster of differentiation 24
# T1 chain (looked up): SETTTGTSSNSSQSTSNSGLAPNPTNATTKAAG
# test.method.notes: FACS, MDA-MB-468 cells
# Experimental: Sequences of some of antibodies from Table 1 were selected to generate and produce human IgG4 chimeric antibodies. […] The protocol for FACs analysis is described as follows: [0536] a. Digested cells using TrypLE™ Express Enzyme (IX); Centrifuged the harvested cells at 400 g for 5 min and discarding the supernatant. [0537] b. Washed the cells 2 times with cold FACS buffer by centrifuging at 400 g for 5 min and discarding the supernatant. [0538] c. […] Incubate at 40° C. for 1 h. [0539] d. […]
readout.type: Max MFI

1. ch110D4G4-hIgG4 (antibody, V domains shown, chimeric; also called chAb110D4G4) VH: EVQLQQSGPGLVKPGASVKISCRASGYLFTGYYMNWVKQSPEKSLEWIGEINPNTGDPRYDQKFKAKATLTVDRSSSTAYMHLKSLTSEDSAVYFCARRDYGTSLDYWGQGTTLTVTS VL: DVQITQSPSYLAASPGETITINCRASKSISKYLAWYQEKPGKTNKLLIYSGSTLQSGIPSRFSGSGSGSDFTLTISSLEPEDFAMYYCQQHNEYPLTFGAGTKLELK; 89700
2. SN3 (antibody, V domains shown) VH: QVQLKESGPGLVAPSQSLSITCTVSGFSLTSYGVHWVRQPPGKGLEWLGVIWAGGSTNYNSALMSRLSISKDNSKSQVFLKMNSLQTDDTAMYYCAVYYGYLFFAYWGQGTLVTVSA VL: ENVLTQSPAIMSASPGEKVTMTCSASSSVSYMHWYQQKSTTSPKLWIYDTSKLASGVPGRFSGSGSGNSYSLTISSMEAEDVATYYCFQGSGYPLTFGGGTKLEIK; 10800
3. ch100F2E3-hIgG4 (antibody, V domains shown, chimeric) VH: QVQLQQPGAELVRPGSSVKLSCKTSDYTFTSYWMDWVKQRPGQGLEWIGNIYPSDSKTHSNQKFRDKATLTVDKSSSTAYMQLNSLTSEDSAVYYCARRGGYYGYAMDYWGQGTSVTVSS VL: DIVMTQSPSSLSVSAGEKVTMSCKSSQSLLNSGNQDNYLAWYQQKPGQPPKLLIYGASIRESGVPDRFTGSGSGTDFTLTISSVQAEDLAVYYCQNDHSYPYTFGGGTKLEIK; 71900
4. ch56A7E3-hIgG4 (antibody, V domains shown, chimeric) VH: EVQLQQSGPELVKPGASVKIPCKASGYTFTAYNMDWVKQSHGMSLEWIGDINPINGGTIYNQNFEGKATLTVDKSSSTAYLELRSLTSEDTAVYYCARRGSYYYGSSHYALDFWGQGTSVSVSS VL: DIQMTQITSSLSASLGDRVTITCRASQDISNYLNWYQQKPDGTVKLLIYYTSRLLSGVPSRFSGSGSGTDYSLTISNLEQEDIATYFCQQDHTLPRTFGGGTKLEIR; 54200
5. ch81A1F8-hIgG4 (antibody, V domains shown, chimeric; also called chAb81A1F8; ch81A1F8-IgG4) VH: EVQLQQSGPELVKPGASVKISCKATGYLFTGYYMNWVKQSPEKSLEWIGEINPNTGDTNNNQKFKAKATMTVDRSSSTAYMQLKRLTSEDSAVYYCVRRDYGTSLDYWGQGTTLTVSS VL: DVQITQSPSYLAASPGETITINCRASKSINKYLAWYQEKPGKTNKLLIHSGSTLQSGIPSRFSGSRSGTDFTLTISNLEPEDFAMYYCQQHNEYPITFGAGTKLELK; 90800
